Value source: patent US9409891B2

# Test Method Notes: First stable form screening (amorphous Compound I in 19 solvents/mixtures at ambient conditions)
# Type: physicochemical
# Assay Context: organic solvent or mixture, thermodynamic from solid; MIBK; amorphous start, ambient; remained solution
Readout Kind: solubility

I am curious: what solubility value has been reported for CC1=CC[C@H](C(=O)N(c2cc(C#CC(C)(C)C)sc2C(=O)O)[C@H]2CC[C@](O)(CO[C@H]3CCOC3)CC2)CC1 ?
> 60.2 mg/mL

====

# Test Method Notes: First stable form screening (amorphous Compound I in 19 solvents/mixtures at ambient conditions)
# Type: physicochemical
# Assay Context: organic solvent or mixture, thermodynamic from solid; MTBE; amorphous start, ambient; 2-week solids V
Readout Kind: solubility (mg/mL)
Write down the numeric answer in mg/mL and omit the unit.

State the recorded solubility for this entry: CC1=CC[C@H](C(=O)N(c2cc(C#CC(C)(C)C)sc2C(=O)O)[C@H]2CC[C@](O)(CO[C@H]3CCOC3)CC2)CC1
316

====

# Test Method Notes: First stable form screening (amorphous Compound I in 19 solvents/mixtures at ambient conditions)
# Format: physicochemical
# Assay Context: organic solvent or mixture, thermodynamic from solid; MEK; amorphous start, ambient; remained solution
# Protocol: The first stable form screening was conducted using 19 solvents/mixtures at ambient conditions. The starting material was amorphous. Anti-solvents, either water or heptane, were used to precipitate the solids. Form I is a hydrate form obtained from ACN/water 50:50 mixture. Form II is an anhydrous form obtained from ACN. […] Solids in water and heptane were amorphous. Other samples remained as solutions. It appears to be a solvated form. […] Solids in water and heptane remained amorphous. […]
Readout Kind: solubility

Given the entry CC1=CC[C@H](C(=O)N(c2cc(C#CC(C)(C)C)sc2C(=O)O)[C@H]2CC[C@](O)(CO[C@H]3CCOC3)CC2)CC1 , report its measured solubility.
> 65.6 mg/mL

====

# Test Method Notes: First stable form screening (amorphous Compound I in 19 solvents/mixtures at ambient conditions)
# Format: physicochemical
# Assay Context: aqueous with cosolvent or surfactant or cyclodextrin, thermodynamic from solid; ACN/water (50:50); amorphous start, ambient; solids I
Readout Kind: solubility (µg/mL)
Use µg/mL as the unit, but write only the number.

Which solubility is reported for this compound? CC1=CC[C@H](C(=O)N(c2cc(C#CC(C)(C)C)sc2C(=O)O)[C@H]2CC[C@](O)(CO[C@H]3CCOC3)CC2)CC1 [Compound I]
230

====

# Test Method Notes: First stable form screening (amorphous Compound I in 19 solvents/mixtures at ambient conditions)
# Format: physicochemical
# Assay Context: organic solvent or mixture, thermodynamic from solid; Toluene; amorphous start, ambient; remained solution
Readout Kind: solubility

Which solubility reading was recorded for the compound CC1=CC[C@H](C(=O)N(c2cc(C#CC(C)(C)C)sc2C(=O)O)[C@H]2CC[C@](O)(CO[C@H]3CCOC3)CC2)CC1 ?
> 16.2 mg/mL

====

# Test Method Notes: First stable form screening (amorphous Compound I in 19 solvents/mixtures at ambient conditions)
# Assay type: physicochemical
# Assay Context: aqueous with cosolvent or surfactant or cyclodextrin, thermodynamic from solid; IPA/water; amorphous start, ambient; 2-week solids V
Readout Kind: solubility (µg/mL)
# value in µg/mL; strip the unit string

Given the entry CC1=CC[C@H](C(=O)N(c2cc(C#CC(C)(C)C)sc2C(=O)O)[C@H]2CC[C@](O)(CO[C@H]3CCOC3)CC2)CC1 , report its measured solubility.
1780

====

# Test Method Notes: First stable form screening (amorphous Compound I in 19 solvents/mixtures at ambient conditions)
# Assay type: physicochemical
# Assay Context: aqueous with cosolvent or surfactant or cyclodextrin, thermodynamic from solid; EtOH/water; amorphous start, ambient; solids III then IV
Readout Kind: solubility
Quick note: unit goes after the number.

Could you tell me which solubility is on file for CC1=CC[C@H](C(=O)N(c2cc(C#CC(C)(C)C)sc2C(=O)O)[C@H]2CC[C@](O)(CO[C@H]3CCOC3)CC2)CC1 ?
14.5 mg/mL

====

# Test Method Notes: First stable form screening (amorphous Compound I in 19 solvents/mixtures at ambient conditions)
# Assay type: physicochemical
# Assay Context: organic solvent or mixture, thermodynamic from solid; IPAc; amorphous start, ambient; remained solution
Readout Kind: solubility

Param item = CC1=CC[C@H](C(=O)N(c2cc(C#CC(C)(C)C)sc2C(=O)O)[C@H]2CC[C@](O)(CO[C@H]3CCOC3)CC2)CC1 [Compound I] ; retrieve measured solubility.
> 39.6 mg/mL
